system: MS2 coat protein; test: apparent KD of MS2 coat protein, switch OFF state (with FMN for OFF switches, without FMN for ON switches); designed switch direction (-1 OFF switch, 1 ON switch): -1; higher = weaker reporter binding; conditions: FMN input: 0 or 200 uM; Eterna round: R93 (includes R88 designs)
reported_property: apparent KD of MS2 coat protein (nM)

{"sequence_chain": "AAAAAUUGAGGAUAUACGAACAUGUCGAAAGACGUGAAGGGACAUGAGGAUCACCCAUGUAGAAGGCGAAAAAA [Mat - Exclusion 2 - JL mod - D68]", "reported_value": 20.7}
{"sequence_chain": "AACAGUACAGGAUAUACAUGAGGAUCACCCAUGUGGGAAUUAAGUGGCGUACCACAAAGUAGAAGGGUACUGGA [Moding Maslow revisited (73)]", "reported_value": 172}
{"sequence_chain": "GAUGAGUGAGGAUAUGUAAAAAAAAGAGAAGAGAAGAGAGAACAGAAGGCACAUGAGGAUCACCCAUGUAGGGA [Default title]", "reported_value": 322}

====

tested on: MS2 coat protein; test: apparent KD of MS2 coat protein; higher = weaker reporter binding; conditions: Eterna round: R107; input ligand: arginine 13.2 mM
Give True when the value for apparent KD of MS2 coat protein is at least 40 nM. Give False when it is less.

{"sequence_chain": "GGGUAAGAUCCGGAUACCAGCGAACAUGAGGAUCACCCAUGUGAAAUAAGAUAGAAUAAACGCCCUUGGCAGCCGAAAUAGAGUU [Same State Theophylline B GF 3]", "cat": "True"}
{"sequence_chain": "CUGCCAUGCAGAGAUACCAGUGAGCUCAGAACAUGAGGAUCACCCAUGUAGGUUGCCGAUCACCCUUGGCAGCUCUGCAUGGCAG [*$+%!]", "cat": "False"}
{"sequence_chain": "GCUGUAAGUGCAGAUACCAGCAUGUUAUAUUUCUAAUGACAUGAGGAUCACCCAUGUAAAUGCCCUUGGCAGCUGCACUUACAGC [SSTHB #6]", "cat": "False"}
{"sequence_chain": "UUUUAAUGUGCGGAUACCAGCCGUACAUGAGGAUCACCCAUGUCGCUGUUGAGCAUCGUCGGCCCUUGGCAGCUGUGUGUAGUUG [#27 Same State - Theophylline B]", "cat": "False"}
{"sequence_chain": "AGAGUUAGACAAAAGUCUAGCUCACCAGAAGGAGCGUCCGAAAGGACAGGUAGGUCGCUGGUGCUUGAGGAUCACCCAAGUUCCU [ArgAS 22 #OpenEnded #AlternativeMS2]", "cat": "True"}
{"sequence_chain": "AUAACAUGAGGAUCACCCAUGUAAGCUGAAGGAGCGGACGAAAGUCCAGGUAGGUCGCAGCGCUCCUUCUGGUGAUCUGAAGGAG [(M1)-(M2)-(Arg1)-(Arg2)-(A)'-(M)'-(A)''_Design3]", "cat": "True"}
{"sequence_chain": "AGACAUGUAAGAUAAAUGACUUAUACAGAUACCAGACUAGUCAAUGUCCCUUGGCAGCUGCAUAACAUGAGGAUCACCCAUGUAA [JR_ExcTheophyA_Sub009]", "cat": "False"}
{"sequence_chain": "ACCGCAUCCGUAUAGGAUGCGGGCCAUGAAGGAGCGUGGGAAACCACAGGUAGGUCGCAUGGGUUACAUGAGGAUCACCCAUGUG [Jaws]", "cat": "False"}
{"sequence_chain": "ACGCGUCAAGAGUAAAAUCCGUCAAGUGAUACCAGCCACAACGUAGGCCCUUGGCAGCACAUGAGGAUCACCCAUGUAAUAAGGA [Gedigerace]", "cat": "True"}
{"sequence_chain": "CAUGGGCUAAGACAUUAUUCGUAUUUUGAUACCAGAAAAUUGGCGUUCCCUUGGCAGCAAUAUACAUGAGGAUCACCCAUGUCCC [theeternabot_exclusion_MS2_Theo_A_23]", "cat": "False"}
{"sequence_chain": "GACCUUGCCUGAAGGAGCGAGGUAAAUAGGGUUGAGCAUACAUGAGGAUCACCCAUGUGGCCUCAGGUAGGUCGCAGGUAGGACA [Exclusion Arginine B GF30]", "cat": "True"}
